Experiment: soluble on expression in E. coli; label from the status in PepcDB or PDB records
measured-endpoint: soluble on expression in E. coli

- MFEGKLVRLRAYRKEDIEKALEFANDPEVKKCLVPGIPFPWRKEDEEKWYQSLNPFSTDSYSFAIEKLSDGEYIGGCSINKIDWKNSVAEVGIFLGRPYWSQGYGTDAMRVLVRFIFNEMNMNKIKLHVFSFNERAKRVYEKIGFKVEGILRQELFREGRYHDVIVMGLLKSEWEDLTETDL: soluble
- MNVLLMAYGTPYAPEEVEPYYTDIRRGRRPSEELLKELAERYEAIGKSPLNEITLAQAVRLQALLNLEAPPYPKRLLSPFPPRAPHGPARVYVGTKHWHPSIGEAVAAMHEDGVRRAVAIVAAPHYSLRSVAEYREKVDSALKALPEPIDFVWVESYEAHPGLIAAYARRLEEVIWRLKNPGKAAYVFTAHSIPLSAVEKGDPYPRQVEKTAELIAKKLALPRFHVAYQSAGRTPEPWLGPDINELLRTLKEEGYEEVAVQAVGFPADHLEVFYDLDLEAQATARELGLRLLRARSLNADLDYIQVLKDLVEAAWPR: soluble

---

Experiment: soluble on expression in E. coli; label from the status in PepcDB or PDB records
measured-endpoint: soluble on expression in E. coli

See these solved cases before continuing.
- MSNDQIWDLLGHQIQIELDTGDVRRQESTTGHLMTRDPVSQSLLIAKIEENSTSIKSIEWIPSCSVKSIRKLKNTENPEIHVAIEKYFENDGIEGGSSGAEDSEEDIKKRAHRVVNYLKSHHLDVVEKPNGTYIIAGTVRFERPYHNANLYCDIPIVLKRILKLVEEI: not soluble
- MRTFTWRKGSLSKVNTCYVLAGGKSKRFGEDKLLYEIKGKKVIERVYETAKSVFKEVYIVAKDREKFSFLNAPVVLDEFEESASIIGLYTALKHAKEENVFVLSGDLPLMKKETVLYVLENFKEPVSVAKTEKLHTLVGVYSKKLLEKIEERIKKGDYRIWALLKDVGYNEVEIPEELRYTLLNMNTKEDLKRILAIENHY: soluble
- MGSDKIHHHHHHMKIAQVAPLWERVPPPSYGGIELVVSHLTNELVRRGHEVTLFASGDSQTLAHLETVCPRALRLDKNVQDYAAYETLELSQVYQNATEFDIIHSHLGISALPLANLVKTPTVHTLHGHFTKDNQNVFSHHHQQPYVSISNAQRQIHLNYIKTVYNGIEPKDYPFISQPKEPPYLAFLGRFSPEKGPHQAIAIAKQSGWRLKMAGKVDIVDAKFFEQEILPHIDGQQIEYLGEINHTEKAELLGNAAATLFPINWQEPFGLVMIESMATGTPVIGMNLGSVPEVIDQGKTGFICRTYEEMIQMIAVTLELDRRDCRESVVNKFSVSHMVDGYEAVYQQIIKDRVNLNGYIHTAKIRF: not soluble
- MTLDYIYHSGFAIEAEGVTVIIDYYKDSSETEHNRGIVHDYLLQRPGKLYVLATHFHPDHFNREILTWKEARPDIRYIFSKDILKSHRAKPEDATYIKKGETYEDETIRIEAFGSTDVGSSFLIHLQDWNIFHAGDLNNWHWSEESTEAEIRKANGDFLAEVKYLKEKAPKIDLALFPVDRRMGKDYMKGAKQFIEQIKTTIFVPMHFSEDYEGGNALRDFAENAGCRFVSITHRGESFEITK: not soluble
- MSYNNSYDVIILAGGLSKRFGADKCCFEVNSKTMLDRLLEQFDNPIVVSRSPRRIKKGILVIEKGEYEGPVKGVREGLKYVRRDRVFITGCDFPFLIKNLVDYVCSKPYDIVIPFDHRPQPLLACYSTELLNKNIDKINGLVELIELSSSVYFIGTEELLKIDPFLYSLININSIIDLIYRPIRIKTKSNFILRLEHHHHHH: not soluble

Quick check: soluble on expression in E. coli of `MKIAVLGATGRAGSAIVAEARRRGHEVLAVVRDPQKAADRLGATVATLVKEPLVLTEADLDSVDAVVDALSVPWGSGRGYLHLDFATHLVSLLRNSDTLAVFILGSASLAMPGADHPMILDFPESAASQPWYDGALYQYYEYQFLQMNANVNWIGISPSEAFPSGPATSYVAGKDTLLVGEDGQSHITTGNMALAILDQLEHPTAIRDRIVVRDADLEHHHHHH` ?
soluble

`KERIIGDLSQPVAVRVRTLIQQMTLAEKVAQLVSESDSIPRLNLPAYNYWNECLHGVARAGEVTVFPQAINLASTWDTVLVKRVASAISTEARLKYLEIGKGLTYWSPTINMARDPRWGRNEETYGEDPHLTSRLGVAFVKGLQGDHPTYLKTVATIKHFVANNEENNRFSSSSQIPTKQLYEYYFPAYEACVKEANAQSVMTAYNAFNGVPPSGSHWLLDDVLRKEWGFDGFVVSDCGAIGVMNWQHRVVNSLEEAAALGVNSGCDLECGTTYKEKLVQAVEQGLISEAAIDRALTRVLTARFKLGEFDPMELVPYNHYDKKLLA` ?
not soluble

Now try `MSLKNYQSSDPFKEARVSSGCAHMNDQDDPVTMILRLKDVRKTAHNWKTFQSGAAPGRIVIPSEVNIRDTRQIPFEVDPPLHGAFRSLLDPWFKRPLKAQYQETLAQQVNALVDDVLKADSIDVVEDFALCLQSRALTLLLNTDADEADTWIGWGTHVFRSEDDPLDGDKAAILYDYIDEKIKASSPNPEGDLYSVLLAAEVEGKKLTHEEIKGIMILTFAGGRDTVINAVTNTVSYFAQHPESLARLRNEPEIIGRAIEELIRYFTPLTQMGRVVTQDTQVCEHAIKADSRVSLCWASANRDESVFESPNDVILDRKLNPHVSFGFSHHNCLGATHARQIMRVLIETLMAKVGSIDIIDFEENIEYLGEFERKVGFHKLHVNIHPREGHHHHHH` .
soluble

Now the sequence `NVKHAFVDVQLAALPKMAYAAVDFVDYRFDNKHWKSLNEICPEVGLKPYADFAVLEVPLYLNNKLDYQVWENFIKPAIATYKALGDSTNLFASTSSSDLQNDTYFALGYPLLESNIDAIHFNQTGATLTSVPVKDRIKVKNQSFWTLN`
not soluble

Another sequence to check: `MGHHHHHHSHMADQKKVSEAAKEREIKISSSDNEIFLVPRNVIRLSNTINTLLMDLGLDDEEGTNAEPIPVQNVTASILKKVISWCNHHHSDPISTEDSDNREKRTDDIGSWDVEFLKVDQGTLFELILAANYLDIKGLLDVTCKTVANMIKGKSPEEIRRTFNIKNDFTPEEEEQIRKENAWCED`
soluble

Also `MGSDKIHHHHHHENLYFQGMRYLSKDILEEVITQRPSDSYKSNFGRVVLIGGNRQYGGAIIMSTEACINSGAGLTTVITDVKNHGPLHARCPEAMVVGFEETVLLTNVVEQADVILIGPGLGLDATAQQILKMVLAQHQKQQWLIIDGSAITLFSQGNFSLTYPEKVVFTPHQMEWQRLSHLPIEQQTLANNQRQQAKLGSTIVLKSHRTTIFHAGEPFQNTGGNPGMATGGTGDTLAGIIAGFLAQFKPTIETIAGAVYLHSLIGDDLAKTDYVVLPTKISQALPTYMKKYAQPHTAPDSELLEQKRSR` ?
soluble

What do we get for `IDEKGRVIIAGIGRFGQVVNRLVRMSGIETVVLDHDMAAVQIMRRFGVKGFFGDPTRPELLQAAGLAEATVLVVAVDDRENAIKIVRYARQVRPDLHIVSRARDRVHVYELYQAGADDIVRETFDSSIRAGRYVLENMGF` ?
not soluble

Source of measurements: the DeepSol protein solubility set
